# Test system: α7 integrin (LacZ reporter in α7+/LacZ myotubes)
# Measurement Protocol: Myotube α7 integrin FDG assay (Burkin assay in myotubes, 96-well)
# Assay type: cell-based, mouse
# Recorded Conditions: myotubes, 1 uM
Observed Property: Burkin Assay in Myotubes, α7 integrin LacZ reporter signal relative to DMSO
Answer with the value's number alone.

INSERT INTO assay_data (molecule, observed_value) VALUES
  ('CC(O)CNc1nc2c(c(=O)n(Cc3ccc(Br)cc3)c(=O)n2C)n1C (centres unmarked)', 1.139),
  ('NC(=O)c1cccnc1Oc1ccc(Cl)cc1Cl', 1.066),
  ('COc1ccc(CCNC(=O)Cn2nnc(C(=O)Nc3ccc(Br)cc3)c2N)cc1OC', 0.9376),
  ('O=C(CSc1nnc(COc2ccc(Br)cc2)o1)NC1CCCCC1', 0.8137);

Prompt line: Given Cc1nc2c(cnn2-c2ccccc2)c(=O)n1/N=C/c1ccccc1 , state its recorded Burkin Assay in Myotubes, α7 integrin LacZ reporter signal relative to DMSO.
Response line: 1.102

Prompt line: # repeat for Nc1ncnc(NCc2ccccc2)c1[N+](=O)[O-]
Response line: 0.8718

Prompt line: # repeat for O=C(c1ccccc1)N1CCN(S(=O)(=O)c2cccs2)CC1
Response line: 1.072

Prompt line: # repeat for CC(=O)Nc1ccc(NC(=O)c2cc(=O)c3cc(C)cc(C)c3o2)cc1
Response line: 0.9487

* * *

# Test system: β-galactosidase in CMV-LacZ C2C12 myotubes
# Measurement Protocol: CMV-LacZ secondary screen in C2C12 myotubes (β-Gal stabilizing assay)
# Type: cell-based, mouse
# Recorded Conditions: 5 uM; C2C12 CMV-LacZ myotubes; fold relative to DMSO
The following compounds are shown together with reported CMV-LACZ in Myotubes, signal relative to DMSO values.
Answer with the value's number alone.

Worked cases, CMV-LACZ in Myotubes, signal relative to DMSO given:
INSERT INTO assay_data (compound, observed_value) VALUES
  ('O=[N+]([O-])c1ccc(N2CCN(c3ccccc3F)CC2)nc1', 0.8271),
  ('O=c1c2cc(-c3ccccc3)sc2nc2n1N=C(c1ccccc1)CS2', 1.0786),
  ('Cc1ccc(NS(=O)(=O)c2ccc3c(c2)NC(=O)CCS3)c(Br)c1', 1.035);

Now for the compound whose CMV-LACZ in Myotubes, signal relative to DMSO we want.
Prompt line: Given the entry COC(=O)Cn1c(=O)c2c(nc3n2CC(C)CN3Cc2ccccc2)n(C)c1=O (stereo not shown) , what CMV-LACZ in Myotubes, signal relative to DMSO was observed with β-galactosidase in CMV-LacZ C2C12 myotubes?
Response line: 0.9780

* * *

# Test system: α7 integrin (LacZ reporter in α7βgal+/− myoblasts)
# Measurement Protocol: Myoblast α7+/LacZ integrin FDG assay (Burkin assay in myoblasts, 96-well)
# Type: cell-based, mouse
# Recorded Conditions: 40 uM; SU9516 analogs, 96-well, N=3-6
Observed Property: Burkin Assay in Myoblasts, value relative to DMSO
Answer with the value's number alone.

Worked cases, Burkin Assay in Myoblasts, value relative to DMSO given:
INSERT INTO assay_data (molecule, observed_value) VALUES
  ('Cc1cc(C)c(/C=C2\C(=O)Nc3ccccc32)[nH]1 [NCGC00094381-03]', 0.5203),
  ('O=C(O)COc1ccccc1/C=C1\C(=O)Nc2ccc(Br)cc21', 0.8763),
  ('O=C1Nc2ccccc2/C1=C\c1cccn1-c1ccc(OC(F)(F)F)cc1', 0.8883);

Prompt line: Given the entry Cc1cc(C)c(/C=C2\C(=O)Nc3ccccc32)[nH]1 [NCGC00094381-05] , what Burkin Assay in Myoblasts, value relative to DMSO was observed with α7 integrin (LacZ reporter in α7βgal+/− myoblasts)?
Response line: 0.7578

Prompt line: # repeat for Cc1ccc2c(c1)/C(=C/c1ccccc1F)C(=O)N2
Response line: 0.6468

* * *

# Test system: α7 integrin (LacZ reporter in α7+/LacZ myotubes)
# Measurement Protocol: Myotube α7 integrin FDG assay (Burkin assay in myotubes, 96-well)
# Format: cell-based, mouse
# Recorded Conditions: myotubes, 10 uM
Mark Yes only for Burkin Assay in Myotubes, α7 integrin LacZ reporter signal relative to DMSO values smaller than 1; exact matches and larger values are No.

INSERT INTO results (molecule, experimental_target, category_label) VALUES
  ('CCOC(=O)C1=C(CC)Nc2ccccc2N=C1NC(=O)c1ccc(OC)c(S(=O)(=O)N2CCCCC2C)c1 (stereo not drawn) [MLS000776409-01]', 'α7 integrin (LacZ reporter in α7+/LacZ myotubes)', 'Yes'),
  ('COC(=O)c1ccccc1NC(=O)CSc1nc(O)c(-c2ccccc2)c(=O)[nH]1 [MLS000621451-01]', 'α7 integrin (LacZ reporter in α7+/LacZ myotubes)', 'No'),
  ('COCCSc1ccccc1C(=O)Nc1cc(C)cc(C)c1 [MLS000675441-01]', 'α7 integrin (LacZ reporter in α7+/LacZ myotubes)', 'No'),
  ('CC1CCCCN1c1ncnc(N)c1[N+](=O)[O-] (stereo not drawn) [MLS000683234-01]', 'α7 integrin (LacZ reporter in α7+/LacZ myotubes)', 'No');

Prompt line: For CCOc1ccccc1Nc1cc2n(c(=O)n1)CCc1cc(OC)c(OC)cc1-2 [MLS001215294-01] , is the recorded Burkin Assay in Myotubes, α7 integrin LacZ reporter signal relative to DMSO below the cut-off of 1?
Response line: Yes

Prompt line: # repeat for Fc1ccc(-c2ccnc3nc(N4CCN(c5ccccc5)CC4)nn23)cc1 [MLS000546316-01]
Response line: No

Prompt line: # repeat for Br.COc1ccc(C(=O)CN2CCCCC2)cc1 [MLS001004864-01]
Response line: Yes

Prompt line: # repeat for Nc1cccc(/C=C/C(=O)O)c1 [MLS000777780-01]
Response line: Yes

Prompt line: # repeat for CC1Cc2ccccc2N1C(=O)CSc1nnc(N)s1 (stereo not drawn) [MLS001160611-01]
Response line: No

* * *

# Tested on: β-galactosidase in CMV-LacZ C2C12 myotubes
# Measurement Protocol: CMV-LacZ secondary screen in C2C12 myotubes (β-Gal stabilizing assay)
# Assay type: cell-based, mouse
# Recorded Conditions: 0.5 uM; SU9516 analogs, C2C12 CMV-LacZ, N=2
Mark 1.0 only for CMV-LACZ in Myotubes, value relative to DMSO values smaller than 1; exact matches and larger values are 0.0.

INSERT INTO results (compound, category_label) VALUES
  ('CN1CCN(c2ccccc2/C=C2/C(=O)Nc3ccccc32)CC1', 1.0),
  ('COc1ccc2c(c1)/C(=C\c1cccc(/C=C3/C(=O)Nc4ccc(OC)cc43)n1)C(=O)N2', 0.0),
  ('CCc1nc(/C=C2\C(=O)Nc3ccccc32)c[nH]1', 1.0),
  ('CCN(CC)CCNC(=O)c1c(C)[nH]c(/C=C2\C(=O)Nc3ccc(F)cc32)c1C [NCGC00164631-03]', 0.0),
  ('CCn1c(O)c(C(C#N)=C2N=c3ccccc3=N2)c2ccccc21', 1.0),
  ('Cc1cc(C)c(/C=C2\C(=O)Nc3ccccc32)[nH]1 [NCGC00094381-04]', 0.0),
  ('O=Nc1c(-c2c(O)[nH]c3ccccc23)[nH]c2ccccc12 [NCGC00015545-07]', 0.0),
  ('Cc1ccc2c(c1)/C(=C/c1ccccc1F)C(=O)N2', 1.0),
  ('Cc1[nH]c(/C=C2\C(=O)Nc3ccc(S(=O)(=O)Cc4c(Cl)cccc4Cl)cc32)c(C)c1C(=O)C1CCCN1CN1CCCC1 (stereo not drawn)', 0.0),
  ('Cc1[nH]c(C=C2C(=O)Nc3ccccc32)c(C)c1CCC(=O)O', 1.0);

Prompt line: For CC(C)Oc1ccc(C(=O)/C=C2/C(=O)Nc3ccccc32)cc1 , is the recorded CMV-LACZ in Myotubes, value relative to DMSO below the cut-off of 1?
Response line: 1.0

Prompt line: # repeat for O=Nc1c(-c2c(O)[nH]c3ccccc23)[nH]c2ccccc12 [NCGC00015545-02]
Response line: 1.0

* * *

# Test system: α7 integrin (LacZ reporter in α7+/LacZ myotubes)
# Measurement Protocol: Myotube α7 integrin FDG assay (Burkin assay in myotubes, 96-well)
# Assay type: cell-based, mouse
# Recorded Conditions: myotubes, 20 uM
Observed Property: Burkin Assay in Myotubes, α7 integrin LacZ reporter signal relative to DMSO
Answer with the value's number alone.

Worked cases, Burkin Assay in Myotubes, α7 integrin LacZ reporter signal relative to DMSO given:
INSERT INTO assay_data (molecule, observed_value) VALUES
  ('CC(NC(=O)c1ccc(C(C)(C)C)cc1)C(c1cccs1)N1CCOCC1 (centres unmarked)', 0.8293),
  ('CN1C(=O)N(CC(=O)N2CCN(S(=O)(=O)c3ccc(Cl)s3)CC2)C(=O)C12CCCCC2', 0.7452);

Prompt line: Given the entry COc1ccc(C)cc1NC(=O)c1ccc2c(O)c(S(=O)(=O)c3ccccc3)c(=O)[nH]c2c1 , what Burkin Assay in Myotubes, α7 integrin LacZ reporter signal relative to DMSO was observed with α7 integrin (LacZ reporter in α7+/LacZ myotubes)?
Response line: 1.089

Prompt line: # repeat for CNC(=O)CSc1nnc(-c2ccc3c(c2)OCO3)n1C
Response line: 0.8283

Prompt line: # repeat for O=c1c2cc(-c3ccccc3)sc2nc2n1N=C(c1ccccc1)CS2
Response line: 0.8526

Prompt line: # repeat for Cn1cc(CN2CCC(C(=O)Nc3cccc(-c4cscn4)c3)CC2)cn1
Response line: 0.8299

Prompt line: # repeat for Cc1ccc(Cn2nnc3c(=O)[nH]c(C4CCCN(C(=O)c5ccco5)C4)nc32)cc1 (centres unmarked)
Response line: 0.7663

Prompt line: # repeat for CC(C)(C)n1cnc2cc(NC(=O)c3ccco3)ccc21
Response line: 0.9991

The values you see were collected from patent US9980943B2.
